Listed here are compounds together with their documented logD.
assay.explanation: Octanol-water partition coefficient, log D of the compound at pH 7.4 by shake flask method
Type: physicochemical
Number, no unit, nothing else.

Some entries whose results are on file:
O=C(CC1SCCNC1=O)Nc1ccc2c(c1)OCO2 (stereo not drawn)
0.9
O=C(CC1SCCNC1=O)Nc1ccc(Cl)c(Cl)c1 (stereo not drawn)
2.3
O=C(c1cccnc1)c1cc2ccccc2[nH]1
2.3
COc1ccc(-c2cccc(=O)[nH]2)cc1
1.4
CCOc1ccc(NC(=O)CC2SCCNC2=O)cc1 (stereo not drawn)
1.3

Consider O=C(CC1SCCNC1=O)Nc1ccc(OC(F)F)cc1 (stereo not drawn) . Its measured logD is 1.5

logD recorded for this compound, COc1ccc(C2CC(=O)NCCS2)cc1 (stereo not drawn) , is 1.6

// field: logD; key: COc1ccccc1NC(=O)CC1SCCNC1=O (stereo not drawn) ; value = 0.8

Summary for this compound, COc1ccc(NC(=O)CC2SCCNC2=O)cc1 (stereo not drawn) : logD is 0.8

// recorded logD for CCN(C)c1cc(-c2ccccc2O)nc2nccn12 : 2.9

Record O=C(CC1SCCNC1=O)Nc1ccccc1 (stereo not drawn) . Reported logD: 0.8

logD reported for this compound O=C(CC1SCCNC1=O)Nc1ccc(O)cc1 (stereo not drawn) : 0.1

====

measured.target: Dual specificity mitogen-activated protein kinase kinase 1 (Homo sapiens)
Sequence (Q02750 whole entry, the tested form may be a part): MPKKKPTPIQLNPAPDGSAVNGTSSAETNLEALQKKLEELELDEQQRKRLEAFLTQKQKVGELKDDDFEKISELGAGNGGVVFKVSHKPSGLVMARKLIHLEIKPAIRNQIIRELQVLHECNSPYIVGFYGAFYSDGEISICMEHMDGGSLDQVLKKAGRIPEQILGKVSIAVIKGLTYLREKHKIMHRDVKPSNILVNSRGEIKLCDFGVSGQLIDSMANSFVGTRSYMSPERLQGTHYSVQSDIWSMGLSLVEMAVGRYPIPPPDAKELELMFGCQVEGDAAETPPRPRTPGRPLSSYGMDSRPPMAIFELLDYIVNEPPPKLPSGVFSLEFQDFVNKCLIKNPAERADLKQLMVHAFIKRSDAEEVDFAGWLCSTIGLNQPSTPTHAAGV
assay.explanation: Binding affinity to full length biotinylated 6His/Avi-tagged/Tev-fused human MEK1 expressed in Escherichia coli in absence of AMP-PNP by SPR assay
// reported pKd per item
Would you please state pKd, meaning minus log10 of the concentration in mol/L, as a bare number?

O=C(CC1SCCNC1=O)Nc1ccc(Cl)cc1 (stereo not drawn)
4.85
O=C(CC1SCCNC1=O)Nc1ccc(Cl)c(Cl)c1 (stereo not drawn)
4.06

Attention now turns to another entry.
pKd value, target or system Dual specificity mitogen-activated protein kinase kinase 1 (Homo sapiens), for O=C(c1cccnc1)c1cc2ccccc2[nH]1 : 4.23

====

Reported Kd values follow for various molecules
measured.target: Dual specificity mitogen-activated protein kinase kinase 1 (Homo sapiens)
assay.explanation: Binding affinity to full length biotinylated 6His/Avi-tagged/Tev-fused human MEK1 expressed in Escherichia coli in presence of AMP-PNP by SPR assay
Number in µM, nothing else.

These solved cases illustrate the format of a correct answer.
O=C(CC1SCCNC1=O)Nc1ccc(Cl)cc1 (stereo not given)
7.4
O=C(c1cccnc1)c1cc2ccccc2[nH]1
65

Moving on to another molecule below.
Given item O=C(CC1SCCNC1=O)Nc1ccc(Cl)c(Cl)c1 (stereo not given) , the value recorded as its Kd is 65

====

assay.explanation: Octanol-water partition coefficient, log D of the compound at pH 7.4 by shake flask method
Format: physicochemical
readout.kind: logD
Returns: the value as a bare number; no unit string appended.

Recorded result, COc1cccc(NC(=O)CC2SCCNC2=O)c1 (stereo unspecified) , logD: 1

logD recorded for this compound, O=C(CC1SCCNC1=O)Nc1ccc(F)cc1 (stereo unspecified) , is 1.2

The value of logD measured for the compound O=C(CC1SCCNC1=O)Nc1ccc(Cl)cc1 (stereo unspecified) turned out to be 1.8

response.value for COc1ccc(NC(=O)CC2SCCNC2=O)cc1F (stereo unspecified) (field: logD) = 1.1

Lookup result for CC(=O)Nc1ccc2c(C(F)(F)F)cc(=O)oc2c1 ; measured logD: 1.8

So, O=c1[nH]ccc2nc(-c3ccccc3)cn12 ? Its logD was 2

Reference for the values: ChEMBL document CHEMBL4673407
